These measurements were taken from the supplement of paper PMC5908809.

# System: normal primary NK cells, pool 2 (3 donors) (IL-2 2.5 ng/mL)
# TEST DESCRIPTION: drug sensitivity score (DSS) (DSS units); higher = more sensitive; extreme values may be limits of the assay
# CONDITION NOTES: 72 h
Consider the following molecules; for each one, report its drug sensitivity score.
One number for each entry.

Below are worked cases with known answers.
# MOLECULE, TARGET OF ASSAY, drug sensitivity score
measured = [
    ("Cc1c(CN2CCN(C(=O)[C@H](C)O)CC2)sc2c(N3CCOCC3)nc(-c3cnc(N)nc3)nc12 [Apitolisib] (max concentration tested 10000 nM)", "normal primary NK cells, pool 2 (3 donors) (IL-2 2.5 ng/mL)", 6.81),
    ("Cc1ccc(-n2nc(C(C)(C)C)cc2NC(=O)Nc2ccc(OCCN3CCOCC3)c3ccccc23)cc1 [Doramapimod] (max concentration tested 10000 nM)", "normal primary NK cells, pool 2 (3 donors) (IL-2 2.5 ng/mL)", 4.66),
    ("CC/C(=C(\\c1ccccc1)c1ccc(OCCN(C)C)cc1)c1ccccc1 [Tamoxifen] (max concentration tested 10000 nM)", "normal primary NK cells, pool 2 (3 donors) (IL-2 2.5 ng/mL)", 4.53),
    ("CN(C)CCN1C(=O)c2cccc3cc(N)cc(c23)C1=O [Amonafide] (max concentration tested 10000 nM)", "normal primary NK cells, pool 2 (3 donors) (IL-2 2.5 ng/mL)", 6.19),
]

Then there is this molecule:
Challenge: Please report the measured drug sensitivity score for CCC1(c2ccc(N)cc2)CCC(=O)NC1=O (stereo not given) [Aminoglutethimide] (max concentration tested 10000 nM)
Response given: 0

====

Consider the following molecules; for each one, report its percent inhibition of viability.
# Test system: YT (IL-2 2.5 ng/mL)
# TEST DESCRIPTION: percent inhibition of viability; higher = more inhibition
# CONDITION NOTES: 72 h; 1000 nM
Numbers only, in %.

# MOLECULE, RESULT TYPE, UNIT NAME, TEST RESULT
records = [
    ("Cc1csc(-c2nnc(Nc3ccc(Oc4ncccc4-c4ccnc(N)n4)cc3)c3ccccc23)c1 [AMG-900] (max concentration tested 1000 nM)", "percent inhibition of viability", "%", 24.9),
]

Could you tell me percent inhibition of viability for each of these molecules? They are listed below.
1. Cc1cc2c(F)c(Oc3ncnn4cc(OC[C@@H](C)O)c(C)c34)ccc2[nH]1 [Brivanib] (max concentration tested 1000 nM)
2. CC[C@H](CC#N)OC(=O)N[C@@H](C)c1cccc(NC(=O)Nc2ccc(-c3cnco3)c(OC)c2)c1 [AVN944] (max concentration tested 10000 nM)
3. O=C(O)c1ccc(-c2c[nH]c3ncc(-c4ccccc4)cc23)cc1C1CCCC1 (max concentration tested 10000 nM)
4. CC1(C)CCC(c2ccc(Cl)cc2)=C(CN2CCN(c3ccc(C(=O)NS(=O)(=O)c4ccc(N[C@H](CCN5CCOCC5)CSc5ccccc5)c(S(=O)(=O)C(F)(F)F)c4)cc3)CC2)C1 [Navitoclax] (max concentration tested 10000 nM)
5. Cc1ccc(-n2nc(C(C)(C)C)cc2NC(=O)Nc2ccc(OCCN3CCOCC3)c3ccccc23)cc1 [Doramapimod] (max concentration tested 10000 nM)
6. Clc1ccc(Nc2nnc(Cc3ccncc3)c3ccccc23)cc1 [Vatalanib] (max concentration tested 10000 nM)
7. Cc1ccc(Nc2nccc(N(C)c3ccc4c(C)n(C)nc4c3)n2)cc1S(N)(=O)=O [Pazopanib] (max concentration tested 10000 nM)

Response given:
[-3.56, 83.2, 10.9, 77.4, 16.7, -0.36, 14.9]

====

# Test system: SNK-6 (IL-2 2.5 ng/mL)
# TEST DESCRIPTION: percent inhibition of viability; higher = more inhibition
# CONDITION NOTES: 72 h; 0.1 nM
RESULT TYPE: percent inhibition of viability (%)
Answers are plain numbers, in %.

Below are worked cases with known answers.
# COMPOUND, percent inhibition of viability (%)
records = [
    ("Cn1c(=O)n(-c2ccc(C(C)(C)C#N)cc2)c2c3cc(-c4cnc5ccccc5c4)ccc3ncc21 [Dactolisib] (max concentration tested 1000 nM)", -7.98),
    ("CC(C)N(C[C@H]1O[C@@H](n2cnc3c(N)ncnc32)[C@H](O)[C@@H]1O)[C@H]1C[C@@H](CCc2nc3cc(C(C)(C)C)ccc3[nH]2)C1 [EPZ-5676] (max concentration tested 1000 nM)", -2.4),
]

Then there is this compound:
Challenge: Please report the measured percent inhibition of viability for Cn1c(Nc2ccc(C(F)(F)F)cc2)nc2cc(Oc3ccnc(-c4ncc(C(F)(F)F)[nH]4)c3)ccc21 [RAF265] (max concentration tested 1000 nM)
Response given: 6.03

====

# Test system: normal primary NK cells, pool 3 (3 donors) (IL-2 2.5 ng/mL)
# TEST DESCRIPTION: percent inhibition of viability; higher = more inhibition
# CONDITION NOTES: 72 h; 100 nM
Consider the following compounds; for each one, report its percent inhibition of viability.
One number for each entry, in %.

Below are worked cases with known answers.
# COMPOUND, TEST RESULT
measured = [
    ("CS(=O)(=O)N1CCN(Cc2cc3nc(-c4cccc5[nH]ncc45)nc(N4CCOCC4)c3s2)CC1 [Pictilisib] (max concentration tested 10000 nM)", -0.72),
    ("CC(C)n1cnc2c(NCCc3ccc(O)cc3)nc(-c3csc4ccccc34)nc21 [StemRegenin 1] (max concentration tested 10000 nM)", -2.9),
]

Could you tell me percent inhibition of viability for each of these compounds? They are listed below.
1. N#CCNC(=O)c1ccc(-c2ccnc(Nc3ccc(N4CCOCC4)cc3)n2)cc1 [Momelotinib] (max concentration tested 10000 nM)
2. CC1(C)CCC(c2ccc(Cl)cc2)=C(CN2CCN(c3ccc(C(=O)NS(=O)(=O)c4ccc(N[C@H](CCN5CCOCC5)CSc5ccccc5)c(S(=O)(=O)C(F)(F)F)c4)cc3)CC2)C1 [Navitoclax] (max concentration tested 10000 nM)
3. CC(C)[C@H](C(=O)Nc1ccc(C(=O)NO)cc1)c1ccccc1 [AR-42] (max concentration tested 10000 nM)
4. Nc1nc(OCc2cc(Br)cs2)c2[nH]cnc2n1 [Lomeguatrib] (max concentration tested 10000 nM)
5. C[C@@H]1C[C@H]2[C@@H]3CCC4=CC(=O)C=C[C@]4(C)[C@@]3(F)[C@@H](O)C[C@]2(C)[C@@]1(O)C(=O)CO [Dexamethasone] (max concentration tested 10000 nM)
6. C[C@]12O[C@H](C[C@]1(O)CO)n1c3ccccc3c3c4c(c5c6ccccc6n2c5c31)CNC4=O [Lestaurtinib] (max concentration tested 1000 nM)
7. O=C(CCCCCCC(=O)Nc1ccccc1)NO [Vorinostat] (max concentration tested 10000 nM)
8. Cn1c(=O)n(-c2ccc(C(C)(C)C#N)cc2)c2c3cc(-c4cnc5ccccc5c4)ccc3ncc21 [Dactolisib] (max concentration tested 1000 nM)

Response given:
1. -0.97
2. 24.6
3. -0.03
4. 7.15
5. 43.5
6. 65.2
7. 0.69
8. 16.5

Could you tell me percent inhibition of viability for each of these compounds? They are listed below.
1. CC(C)c1c(C(=O)Nc2ccccc2)c(-c2ccccc2)c(-c2ccc(F)cc2)n1CC[C@@H](O)C[C@@H](O)CC(=O)O [Atorvastatin] (max concentration tested 10000 nM)
2. Cc1cc(Nc2nc(N[C@@H](C)c3ncc(F)cn3)ncc2Cl)[nH]n1 [AZD1480] (max concentration tested 1000 nM)
3. CN1CCN(c2nc(C3=C(c4c[nH]c5ccccc45)C(=O)NC3=O)c3ccccc3n2)CC1 [Sotrastaurin] (max concentration tested 10000 nM)

Response given:
1: -9.88; 2: 21.8; 3: 8.22

Could you tell me percent inhibition of viability for each of these compounds? They are listed below.
1. CCC1(c2ccc(N)cc2)CCC(=O)NC1=O (stereo unspecified) [Aminoglutethimide] (max concentration tested 10000 nM)
2. Clc1ccc(Nc2nnc(Cc3ccncc3)c3ccccc23)cc1 [Vatalanib] (max concentration tested 10000 nM)
3. O=C(O)CC[C@H]1CC[C@@](c2cc(F)ccc2F)(S(=O)(=O)c2ccc(Cl)cc2)CC1 [MK-0752] (max concentration tested 1000 nM)

Response given:
1: 1.89; 2: -5.65; 3: -5.48

====

# Test system: IMC-1 (IL-2 20 ng/mL)
# TEST DESCRIPTION: percent inhibition of viability; higher = more inhibition
# CONDITION NOTES: 72 h; 10 nM
RESULT TYPE: percent inhibition of viability
Just the number plus its unit, please.

Could you tell me percent inhibition of viability for each of these molecules? They are listed below.
1. O=C(CCCCCCNC(=O)c1cnc(N(c2ccccc2)c2ccccc2)nc1)NO [Rocilinostat] (max concentration tested 10000 nM)
2. COc1cccc2c1C(=O)c1c(O)c3c(c(O)c1C2=O)C[C@@](O)(/C(CO)=N/NC(=O)CCCCCN1C(=O)C=CC1=O)C[C@@H]3O[C@H]1C[C@H](N)[C@H](O)[C@H](C)O1 [Aldoxorubicin] (max concentration tested 1000 nM)

Response given:
-8.29%
3.18%
